Taken from patent US20230183228A1.

# ASSAY_COMMENT: Liver-targeted tissue distribution profile study in rats
# Format: in vivo, Sprague Dawley rats
# RUN_PARAMETERS: rat, single 10 mg/kg PO, liver, 24 h
READOUT_TYPE: Measured Compound Concentrations Liver - 24 h

N#Cc1cc(-c2nn(-c3nc(C(=O)O)cs3)c(CC3CC3)c2Cc2ccc(S(N)(=O)=O)c(F)c2)ccc1F	− (0.25 μM≥−)
NS(=O)(=O)c1ccc(Cc2c(-c3ccc(F)c(Cl)c3)nn(-c3nc(C(=O)O)cs3)c2CC2CC2)cc1F	− (0.25 μM≥−)
NS(=O)(=O)c1ccc(Cc2c(-c3cc(F)c(F)c(F)c3)nn(-c3nc(C(=O)O)cs3)c2CC2CC2)cc1F	− (0.25 μM≥−)

---

Provide the reported pIC50 of each item.
# TESTED_TARGET: human recombinant C-terminal His-tagged LDHA (Homo sapiens)
# Construct: His (C)
# ASSAY_COMMENT: Human LDHA enzyme assay
# Assay type: biochemical
# RUN_PARAMETERS: 50 μM pyruvate, 50 μM NADH, no HSA
pIC50: −log10 of the molar value.

Hello, please tell me recorded pIC50 for this one: NS(=O)(=O)c1c(F)cc(Cc2c(-c3ccc(F)cc3)nn(-c3nc(C(=O)O)cs3)c2CC2CC2)cc1F
> 9.00

Hello, please tell me recorded pIC50 for this one: NS(=O)(=O)c1ccc(Cc2c(-c3cccc(F)c3)nn(-c3nc(C(=O)O)cs3)c2CC2CC2)cc1F
> 9.00

Hello, please tell me recorded pIC50 for this one: NS(=O)(=O)c1ccc(Cc2c(-c3ccc(F)cc3)nn(-c3nc(C(=O)O)co3)c2CC2CC2)cc1F
> 9.00

Hello, please tell me recorded pIC50 for this one: Cc1c(Cc2ccc(S(N)(=O)=O)c(F)c2)c(-c2ccc(F)cc2)nn1-c1nc(C(=O)O)cs1
> 9.00

---

# ASSAY_COMMENT: Liver-targeted tissue distribution profile study in rats
# Assay type: in vivo, Sprague Dawley rats
# RUN_PARAMETERS: rat, single 10 mg/kg PO, liver, 4 h
# Method: Plasma and liver (target organ) concentrations of test compounds were determined in rats following a single per os (PO) administration of the test compounds. […] Plasma and liver homogenate samples were processed by protein precipitation using acetonitrile and the concentrations of the test compounds were determined by liquid chromatography-tandem mass spectrometry (SciEx triple quad 5500+ with Exion UPLC). […]
READOUT_TYPE: Measured Compound Concentrations Liver - 4 h

Guide cases for Measured Compound Concentrations Liver - 4 h, answers given:
NS(=O)(=O)c1ccc(Cc2c(-c3ccc(F)cc3)nn(-c3nc(C(=O)O)co3)c2CC2CC2)cc1F	++ (5 μM≥++>1 μM)
NS(=O)(=O)c1ccc(Cc2c(-c3cc(F)cc(F)c3)nn(-c3nc(C(=O)O)cs3)c2CC2CC2)cc1F	++++ (++++>10 μM)
N#Cc1cc(-c2nn(-c3nc(C(=O)O)cs3)c(CC3CC3)c2Cc2ccc(S(N)(=O)=O)c(F)c2)ccc1F	+++ (10 μM≥+++>5 μM)
NS(=O)(=O)c1ccc(Cc2c(-c3cccc(F)c3)nn(-c3nc(C(=O)O)cs3)c2CC2CC2)cc1F	++++ (++++>10 μM)
NS(=O)(=O)c1ccc(Cc2c(-c3ccc(F)cc3)nn(-c3nc(C(=O)O)cs3)c2CC2CC2)cc1F	++++ (++++>10 μM)

Hello, please tell me recorded Measured Compound Concentrations Liver - 4 h for this one: NS(=O)(=O)c1ccc(Cc2c(-c3ccc(Cl)cc3)nn(-c3nc(C(=O)O)cs3)c2CC2CC2)cc1F
++ (5 μM≥++>1 μM)

Hello, please tell me recorded Measured Compound Concentrations Liver - 4 h for this one: N#Cc1cccc(-c2nn(-c3nc(C(=O)O)cs3)c(CC3CC3)c2Cc2ccc(S(N)(=O)=O)c(F)c2)c1
+++ (10 μM≥+++>5 μM)

---

# ASSAY_COMMENT: Liver-targeted tissue distribution profile study in rats
# Assay type: in vivo, Sprague Dawley rats
# RUN_PARAMETERS: rat, single 10 mg/kg PO, liver, 24 h
READOUT_TYPE: Measured Compound Concentrations Liver - 24 h

NS(=O)(=O)c1ccc(Cc2c(-c3ccc(F)cc3)nn(-c3nc(C(=O)O)co3)c2CC2CC2)cc1F [Example 9]	− (0.25 μM≥−)
NS(=O)(=O)c1ccc(Cc2c(-c3ccc(C(F)F)cc3)nn(-c3nc(C(=O)O)cs3)c2CC2CC2)cc1F [Example 21]	− (0.25 μM≥−)
NS(=O)(=O)c1ccc(Cc2c(-c3cccc(C(F)(F)F)c3)nn(-c3nc(C(=O)O)cs3)c2CC2CC2)cc1F [Example 18]	− (0.25 μM≥−)

---

# System: fresh primary mouse hepatocytes
# ASSAY_COMMENT: Primary mouse hepatocyte assay (lactate production)
# Assay type: cell-based
# RUN_PARAMETERS: 0.1 M cells/well
READOUT_TYPE: IC50

State IC50 on fresh primary mouse hepatocytes. Entry: NS(=O)(=O)c1ccc(Cc2c(-c3cccc(Cl)c3)nn(-c3nc(C(=O)O)cs3)c2CC2CC2)cc1F
< 100 nM

State IC50 on fresh primary mouse hepatocytes. Entry: NS(=O)(=O)c1ccc(Cc2c(-c3cc(F)c(F)c(F)c3)nn(-c3nc(C(=O)O)cs3)c2CC2CC2)cc1F
< 100 nM

State IC50 on fresh primary mouse hepatocytes. Entry: NS(=O)(=O)c1ccc(Cc2c(-c3ccccc3F)nn(-c3nc(C(=O)O)cs3)c2CC2CC2)cc1F
100 to 250 nM

State IC50 on fresh primary mouse hepatocytes. Entry: NS(=O)(=O)c1c(F)cc(Cc2c(-c3ccc(F)cc3)nn(-c3nc(C(=O)O)cs3)c2CC2CC2)cc1F
100 to 250 nM

State IC50 on fresh primary mouse hepatocytes. Entry: NS(=O)(=O)c1ccc(Cc2c(-c3ccc(F)cc3)nn(-c3nc(C(=O)O)cs3)c2CC2CC2)cc1F
< 100 nM

State IC50 on fresh primary mouse hepatocytes. Entry: NS(=O)(=O)c1ccc(Cc2c(-c3ccc(C(F)F)cc3)nn(-c3nc(C(=O)O)cs3)c2CC2CC2)cc1F
< 100 nM

State IC50 on fresh primary mouse hepatocytes. Entry: N#Cc1cccc(-c2nn(-c3nc(C(=O)O)cs3)c(CC3CC3)c2Cc2ccc(S(N)(=O)=O)c(F)c2)c1
< 100 nM

---

# System: fresh primary mouse hepatocytes
# ASSAY_COMMENT: Primary mouse hepatocyte assay (lactate production)
# Type: cell-based
# RUN_PARAMETERS: 0.1 M cells/well
pIC50: −log10 of the molar value.
Provide the reported pIC50 of each item.

Hello, please tell me recorded pIC50 for this one: NS(=O)(=O)c1ccc(Cc2c(-c3ccc(F)c(F)c3)nn(-c3nc(C(=O)O)cs3)c2CC2CC2)cc1F [Example 12]
> 7.00

Hello, please tell me recorded pIC50 for this one: NS(=O)(=O)c1ccc(Cc2c(-c3cc(Cl)cc(Cl)c3)nn(-c3nc(C(=O)O)cs3)c2CC2CC2)cc1F [Example 26]
6.60 to 7.00

Hello, please tell me recorded pIC50 for this one: NS(=O)(=O)c1ccc(Cc2c(-c3cccc(OC(F)(F)F)c3)nn(-c3nc(C(=O)O)cs3)c2CC2CC2)cc1F [Example 19]
6.60 to 7.00

Hello, please tell me recorded pIC50 for this one: COc1cc(F)cc(-c2nn(-c3nc(C(=O)O)cs3)c(CC3CC3)c2Cc2ccc(S(N)(=O)=O)c(F)c2)c1 [Example 24]
> 7.00

Hello, please tell me recorded pIC50 for this one: NS(=O)(=O)c1ccc(Cc2c(-c3cccc(C(F)(F)F)c3)nn(-c3nc(C(=O)O)cs3)c2CC2CC2)cc1F [Example 18]
> 7.00

Hello, please tell me recorded pIC50 for this one: NS(=O)(=O)c1ccc(Cc2c(-c3ccc(F)cc3)nn(-c3nc(C(=O)O)cs3)c2CC2CC2)cc1Cl [Example 10]
6.60 to 7.00

Hello, please tell me recorded pIC50 for this one: NS(=O)(=O)c1ccc(Cc2c(-c3ccccc3)nn(-c3nc(C(=O)O)cs3)c2CC2CC2)cc1F [Example 20]
> 7.00

Hello, please tell me recorded pIC50 for this one: NS(=O)(=O)c1ccc(Cc2c(-c3cccc(OCC(F)(F)F)c3)nn(-c3nc(C(=O)O)cs3)c2CC2CC2)cc1F [Example 22]
> 7.00

Hello, please tell me recorded pIC50 for this one: N#Cc1cc(-c2nn(-c3nc(C(=O)O)cs3)c(CC3CC3)c2Cc2ccc(S(N)(=O)=O)c(F)c2)ccc1F [Example 2]
> 7.00

Hello, please tell me recorded pIC50 for this one: COc1cc(-c2nn(-c3nc(C(=O)O)cs3)c(CC3CC3)c2Cc2ccc(S(N)(=O)=O)c(F)c2)ccc1C#N [Example 23]
> 7.00
